test: lambda max (Vis) of activated photochromic test squares in a Varian Cary 3 uv-visible spectrophotometer; format: physicochemical; conditions: Band B; activated form in test square
Measured endpoint: λ MAX Vis (Band B) (nm)

Molecule	Measured endpoint	Test value
CCC1(O)c2ccccc2-c2c1c1c(c3cc(OC)c(OC)cc23)OC(c2ccc(OC)cc2)(c2ccc(N3CCOCC3)cc2)C=C1 (stereo not drawn) [Example 17]	λ MAX Vis (Band B)	603
CCC1(O)c2cc(OC)c(OC)cc2-c2c1c1c(c3cc(OC)c(OC)cc23)OC(c2ccc(OC)cc2)(c2ccc(OC)cc2)C=C1 (stereo not drawn) [Example 3]	λ MAX Vis (Band B)	623
COc1ccc(C2(c3ccc(OC)cc3)C=Cc3c4c(c5cc(OC)c(OC)cc5c3O2)-c2ccccc2C4c2ccccc2)cc1 (stereo not drawn) [Example 7]	λ MAX Vis (Band B)	577
CCC1(O)c2ccccc2-c2c1c1c(c3ccccc23)OC(c2ccc(OC)cc2)(c2ccc(OC)cc2)C=C1 (stereo not drawn) [Comp. Ex. 1, reference compound]	λ MAX Vis (Band B)	562
COc1ccc(C2(c3ccc(N(C)C)cc3)C=Cc3c4c(c5cc(OC)c(OC)cc5c3O2)-c2ccccc2C4(C)C)cc1 (stereo not drawn) [Example 10]	λ MAX Vis (Band B)	615
CCC1(O)c2cc(OC)c(OC)cc2-c2c1c1c(c3ccccc23)OC(c2ccc(OC)cc2)(c2ccc(OC)cc2)C=C1 (stereo not drawn) [Comp. Ex. 3, reference compound]	λ MAX Vis (Band B)	600

====

test: lambda max (Vis) of activated photochromic test squares in a Varian Cary 3 uv-visible spectrophotometer; assay type: physicochemical; settings: Band A; activated form in test square
Measured endpoint: λ MAX Vis (Band A) (nm)

Molecule	Unit name	λ MAX Vis (Band A)
CCC1(O)c2cc(OC)c(OC)cc2-c2c1c1c(c3ccccc23)OC(c2ccc(OC)cc2)(c2ccc(OC)cc2)C=C1 (stereo not drawn) [Comp. Ex. 3, reference compound]	nm	445
CCC1(O)c2cc(OC)c(OC)cc2-c2c1c1c(c3cc(OC)c(OC)cc23)OC(c2ccc(OC)cc2)(c2ccc(N3CCOCC3)cc2)C=C1 (stereo not drawn)	nm	480
CCCCC1(O)c2ccccc2-c2c1c1c(c3cc(OC)c(OC)cc23)OC(c2ccc(OC)cc2)(c2ccc(OC)cc2)C=C1 (stereo not drawn)	nm	457
CCCCC1(O)c2cc(OC)c(OC)cc2-c2c1c1c(c3cc(OC)c(OC)cc23)OC(c2ccc(OC)cc2)(c2ccc(N3CCOCC3)cc2)C=C1 (stereo not drawn)	nm	482
CCC1(O)c2cc(OC)ccc2-c2c1c1c(c3cc(OC)ccc23)OC(c2ccc(OC)cc2)(c2ccc(OC)cc2)C=C1 (stereo not drawn) [Comp. Ex. 2, reference compound]	nm	499
CCC1(O)c2ccccc2-c2c1c1c(c3ccccc23)OC(c2ccc(OC)cc2)(c2ccc(OC)cc2)C=C1 (stereo not drawn) [Comp. Ex. 1, reference compound]	nm	437

====

assay: Relative ΔOD at Saturation Test; format: physicochemical; conditions: ΔOD at saturation (Band A)/ΔOD at saturation (Band B)×100
Measured endpoint: Relative ΔOD at Saturation (rating)

>>> print(df.to_string())
                                   compound  test_value
0  CCCCC1(O)c2ccccc2-c2c1c1c(c3cc(OC)c(OC)cc23)OC(c2ccccc2)(c2ccc(N3CCOCC3)cc2)C=C1 (stereo not drawn)         106
1  COc1ccc(C2(c3ccc(OC)cc3)C=Cc3c4c(c5cc(OC)c(OC)cc5c3O2)-c2ccccc2C4c2ccccc2)cc1 (stereo not drawn)         153
2  CCC1(OC)c2ccccc2-c2c1c1c(c3cc(OC)c(OC)cc23)OC(c2ccc(OC)cc2)(c2ccc(N3CCOCC3)cc2)C=C1 (stereo not drawn)         100

(A) CCCCC1(O)c2ccccc2-c2c1c1c(c3cc(OC)c(OC)cc23)OC(c2ccc(OC)cc2)(c2ccc(OC)cc2)C=C1 (stereo not drawn)
(B) COc1ccc(C2(c3ccc(N4CCOCC4)cc3)C=Cc3c4c(c5cc(OC)c(OC)cc5c3O2)-c2ccccc2C4(C)C)cc1 (stereo not drawn)
Prompt: Smaller Relative ΔOD at Saturation (rating) value, A vs B ? Give the chosen item's label as your response.
Response: B
(B: 102, A: 168)

====

assay: photochromic response of test squares on an optical bench (sensitivity, saturation optical density, bleach rate); format: physicochemical; conditions: Band B; UV exposure 15 minutes; 72° F. (22.2° C.); polymer test square
Measured endpoint: ΔOD @ Saturation (Band B)

See these solved cases before continuing.
Compound	ΔOD @ Saturation (Band B)
CCC1(O)c2cc(OC)c(OC)cc2-c2c1c1c(c3cc(OC)c(OC)cc23)OC(c2ccc(OC)cc2)(c2ccc(N3CCOCC3)cc2)C=C1 (centres unmarked)	0.43
CCC1(O)c2ccccc2-c2c1c1c(c3ccccc23)OC(c2ccc(OC)cc2)(c2ccc(OC)cc2)C=C1 (centres unmarked) [Comp. Ex. 1, reference compound]	0.27
CCC1(OC)c2ccccc2-c2c1c1c(c3cc(OC)c(OC)cc23)OC(c2ccc(OC)cc2)(c2ccc(N3CCOCC3)cc2)C=C1 (centres unmarked)	0.27
CCC1(O)c2cc(OC)c(OC)cc2-c2c1c1c(c3cc(OC)c(OC)cc23)OC(c2ccc(OC)cc2)(c2ccc(OC)cc2)C=C1 (centres unmarked)	0.41
COc1ccc(C2(c3ccc(OC)cc3)C=Cc3c4c(c5cc(OC)c(OC)cc5c3O2)-c2cc(OC)c(OC)cc2C4(C)C)cc1	0.79
COc1ccc(C2(c3ccc(N(C)C)cc3)C=Cc3c4c(c5cc(OC)c(OC)cc5c3O2)-c2ccccc2C4(C)C)cc1 (centres unmarked)	0.50

(I) CCC1(O)c2cc(OC)ccc2-c2c1c1c(c3cc(OC)ccc23)OC(c2ccc(OC)cc2)(c2ccc(OC)cc2)C=C1 (centres unmarked) [Comp. Ex. 2, reference compound]
(II) CCCCC1(O)c2ccccc2-c2c1c1c(c3cc(OC)c(OC)cc23)OC(c2ccc(OC)cc2)(c2ccc(OC)cc2)C=C1 (centres unmarked)
(III) COc1ccc(C2(c3ccc(N4CCOCC4)cc3)C=Cc3c4c(c5cc(OC)c(OC)cc5c3O2)-c2ccccc2C4(C)O)cc1 (centres unmarked)
(IV) COc1cc2c(cc1OC)C(C)(C)c1c3c(c4cc(OC)c(OC)cc4c1-2)OC(c1ccccc1)(c1ccc(N2CCOCC2)cc1)C=C3 (centres unmarked)
(V) CCC1(CC)c2cc(OC)c(OC)cc2-c2c1c1c(c3cc(OC)c(OC)cc23)OC(c2ccc(OC)cc2)(c2ccc(OC)cc2)C=C1
Prompt: I would appreciate it if you could sort these 5 compounds by ΔOD @ Saturation (Band B), starting from the smallest number. Output the labels ranked as instructed.
Response: II, III, I, V, IV

(I) CCCCC1(O)c2cc(OC)c(OC)cc2-c2c1c1c(c3cc(OC)c(OC)cc23)OC(c2ccc(OC)cc2)(c2ccc(N3CCOCC3)cc2)C=C1 (centres unmarked)
(II) COc1ccc(C2(c3ccc(OC)cc3)C=Cc3c4c(c5cc(OC)c(OC)cc5c3O2)-c2ccccc2C4(C)C)cc1
Prompt: In the pair I and II , the larger recorded ΔOD @ Saturation (Band B) belongs to which? Give the chosen item's label as your response.
Response: II

(A) COc1ccc(C2(c3ccc(N4CCOCC4)cc3)C=Cc3c4c(c5cc(OC)c(OC)cc5c3O2)-c2ccccc2C4c2ccccc2)cc1 (centres unmarked)
(B) CCC1(O)c2ccccc2-c2c1c1c(c3cc(OC)c(OC)cc23)OC(c2ccc(OC)cc2)(c2ccc(N3CCOCC3)cc2)C=C1 (centres unmarked)
Prompt: Smaller ΔOD @ Saturation (Band B) value, A vs B ? Give the chosen item's label as your response.
Response: B

====

In this section, each of the compounds is paired with its reported Sensitivity ΔOD/MIN (Band A).
Assay: photochromic response of test squares on an optical bench (sensitivity, saturation optical density, bleach rate)
Format: physicochemical
Conditions: Band A; first five (5) seconds of UV exposure, expressed per minute; 72° F. (22.2° C.); polymer test square
Method: Testing was done with the photochromic compounds described in Examples 1 through 20 and Comparative Examples 1 through 3 in the following manner. A quantity of photochromic compound calculated to yield a 1.5×10^-3 molal solution was added to a flask containing 50 grams of a monomer blend of 4 parts ethoxylated bisphenol A dimethacrylate (BPA 2EO DMA), 1 part poly(ethylene glycol) 600 dimethacrylate, and 0.033 weight percent 2,2'-azobis(2-methyl propionitrile) (AIBN). […]

See these solved cases before continuing.
Compound	Test value
COc1ccc(C2(c3ccc(N4CCOCC4)cc3)C=Cc3c4c(c5cc(OC)c(OC)cc5c3O2)-c2ccccc2C4(C)O)cc1 (stereo not shown) [Example 19]	0.18 ΔOD/MIN
CCC1(O)c2cc(OC)c(OC)cc2-c2c1c1c(c3cc(OC)c(OC)cc23)OC(c2ccc(OC)cc2)(c2ccc(OC)cc2)C=C1 (stereo not shown) [Example 3]	0.34 ΔOD/MIN
CCC1(O)c2cc(OC)ccc2-c2c1c1c(c3cc(OC)ccc23)OC(c2ccc(OC)cc2)(c2ccc(OC)cc2)C=C1 (stereo not shown) [Comp. Ex. 2, reference compound]	0.22 ΔOD/MIN

Prompt: Can you look up the measured Sensitivity ΔOD/MIN (Band A) of COc1ccc(C2(c3ccc(OC)cc3)C=Cc3c4c(c5cc(OC)c(OC)cc5c3O2)-c2ccccc2C4c2ccccc2)cc1 (stereo not shown) [Example 7] for me?
Response: 0.17 ΔOD/MIN

Prompt: Can you look up the measured Sensitivity ΔOD/MIN (Band A) of CCCCC1(O)c2ccccc2-c2c1c1c(c3cc(OC)c(OC)cc23)OC(c2ccc(OC)cc2)(c2ccc(OC)cc2)C=C1 (stereo not shown) [Example 15] for me?
Response: 0.29 ΔOD/MIN

Prompt: Can you look up the measured Sensitivity ΔOD/MIN (Band A) of COc1ccc(C2(c3ccc(OC)cc3)C=Cc3c4c(c5cc(OC)c(OC)cc5c3O2)-c2cc(OC)c(OC)cc2C4(C)C)cc1 [Example 1] for me?
Response: 0.33 ΔOD/MIN

Prompt: Can you look up the measured Sensitivity ΔOD/MIN (Band A) of CCCCC1(O)c2cc(OC)c(OC)cc2-c2c1c1c(c3cc(OC)c(OC)cc23)OC(c2ccc(OC)cc2)(c2ccc(N3CCOCC3)cc2)C=C1 (stereo not shown) [Example 13] for me?
Response: 0.27 ΔOD/MIN

Prompt: Can you look up the measured Sensitivity ΔOD/MIN (Band A) of CCCCC1(O)c2ccccc2-c2c1c1c(c3cc(OC)c(OC)cc23)OC(c2ccccc2)(c2ccc(N3CCOCC3)cc2)C=C1 (stereo not shown) [Example 16] for me?
Response: 0.22 ΔOD/MIN

Prompt: Can you look up the measured Sensitivity ΔOD/MIN (Band A) of CCC1(O)c2ccccc2-c2c1c1c(c3cc(OC)c(OC)cc23)OC(c2ccc(OC)cc2)(c2ccc(N3CCOCC3)cc2)C=C1 (stereo not shown) [Example 17] for me?
Response: 0.21 ΔOD/MIN

Prompt: Can you look up the measured Sensitivity ΔOD/MIN (Band A) of CCC1(O)c2cc(OC)c(OC)cc2-c2c1c1c(c3cc(OC)c(OC)cc23)OC(c2ccc(OC)cc2)(c2ccc(N3CCOCC3)cc2)C=C1 (stereo not shown) [Example 12] for me?
Response: 0.26 ΔOD/MIN
